Measured values drawn from PubChem BioAssay for this set.

- Test system: Wnt5a (protein binding on small-molecule microarray)
- experimental.details: Wnt5a binders on small-molecule microarray, primary screen, biophysical, 635/667 nm fluorescence (AID 1142);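 further: fluorescence read at 667 nm with signal to noise per printed feature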
- setup.conditions: 635 nm fluorescence, higher = more signal
Output Fulfilled for composite z-score not less than 0.2; output Not fulfilled otherwise.

Incoming: Hello, I need to know if COC(=O)[C@@]1(Cc2ccccc2)[C@H]2c3cc(C(=O)N4CCCC4)n(CCSCCO)c3C[C@H]2CN1C(=O)c1ccccc1 has measured composite z-score not below 0.2. Thanks!
Outgoing: Fulfilled

Incoming: Kindly determine if composite z-score recorded for COc1cc(NN2C(C(O)c3ccc(I)cc3)C=CC3C(=O)N(c4ccccc4)C(=O)C32)cc(OC)c1OC (stereo not given) is above or exactly 0.2.
Outgoing: Fulfilled

Incoming: Assess whether reported composite z-score for CC(C)C[C@@H]1NC(=O)[C@H]2C[C@@H](C(=O)NCCCCCN)[C@@H](c3cccc(OCCO)c3)N2C1=O sits at 0.2 or higher.
Outgoing: Not fulfilled

Incoming: Reported composite z-score reaches at least 0.2 for CC(=O)NCCCC[C@@H]1NC(=O)[C@H]2C[C@@H](C(=O)NCCCCCNC(=O)CS)[C@@H](c3cccc(OCCO)c3)N2C1=O ?
Outgoing: Not fulfilled

Incoming: Check this molecule for composite z-score at or above 0.2: CN1C=C(C(=O)OCCS(C)(=O)=O)C(C(=O)OCCS(C)(=O)=O)=CC(c2ccc(CO)cc2)=CC1c1cccs1 (stereo not given)
Outgoing: Not fulfilled

Incoming: Check if composite z-score >= 0.2 (inclusive). Item: COc1ccc(CCNC(=O)[C@@]2(Cc3ccccc3I)c3ccccc3C(=O)N(Cc3ccccc3Cl)[C@H]2c2ccc(CO)cc2)cc1
Outgoing: Not fulfilled

Incoming: Tell me whether composite z-score is at least 0.2 here: CC(C)C(=C=CC[C@@H](O)c1cccc(OCCO)c1)C[C@@H](O)c1ccccn1
Outgoing: Not fulfilled

Incoming: Record COC(=O)C(CC#Cc1ccc2c(c1)[C@]1(C(=O)N2)[C@H](c2ccc(O)cc2)N2[C@H](c3ccccc3)[C@H](c3ccccc3)OC(=O)[C@H]2[C@@H]1C(=O)N1CCCCCCC1)C(=O)OC ; criterion: composite z-score no lower than 0.2. Met?
Outgoing: Fulfilled

Incoming: hey, is composite z-score for this one >= 0.2? O=C1C2C=CC(C(O)c3ccc4c(c3)OCO4)N(Nc3ccccc3)C2C(=O)N1c1ccccc1 (stereo not given)
Outgoing: Not fulfilled

Incoming: Is it the case that CCOC(=O)C1=CCC(c2ccccc2)N(S(=O)(=O)c2ccc([N+](=O)[O-])cc2)C1 (stereo not given) has composite z-score reaching or exceeding 0.2?
Outgoing: Not fulfilled

Incoming: Does the molecule O=C1N[C@@H](Cc2ccccc2)C(=O)N2[C@@H]1C[C@@H](C(=O)O)[C@H]2c1ccc(O)cc1 have recorded composite z-score that is 0.2 or more?
Outgoing: Fulfilled

Incoming: Item CCCCCN1CC=CC23O[C@@H]4/C=C\CCC(C)OC(=O)C4[C@H]2C(=O)N(CCCCCCO)[C@@H]3C1=O (stereo not given in full) with composite z-score of 0.2 or above?
Outgoing: Not fulfilled

Incoming: Check the entry C#C[C@@H](CC)O[Si](C#CCCCC#N)(C(C)C)C(C)C : does composite z-score equal or exceed 0.2?
Outgoing: Not fulfilled

Incoming: Dear colleague, could you confirm whether CC(C)[C@H]1NC(=O)[C@@]23C(=O)N[C@@H](Cc4ccccc4)C2[C@H](C)[C@@]2(C)O[C@H]2C3/C=C/C/C=C\CNC(=O)[C@H](Cc2ccccc2)NC1=O (stereo not given in full) has composite z-score at or above 0.2?
Outgoing: Fulfilled

Incoming: Given CCN(CC)c1ccc(N2CC=CC34O[C@@H]5C=CCCOC(=O)C5[C@H]3C(=O)N(CCO)[C@@H]4C2=O)cc1 (stereo not given in full) , state whether its composite z-score is at least 0.2.
Outgoing: Not fulfilled
